Origin of values: the RNAGym collection of RNA variant scans (doi:10.1073/pnas.2313332121)

B1: TPR t1 (parent)
chain: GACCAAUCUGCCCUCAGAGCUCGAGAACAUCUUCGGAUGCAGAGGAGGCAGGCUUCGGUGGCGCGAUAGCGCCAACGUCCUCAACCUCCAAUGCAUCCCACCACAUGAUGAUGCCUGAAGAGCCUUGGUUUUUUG

Variants of: B1
procedure.summary: polymerase ribozyme fitness, log enrichment relative to wild type (log ratio); higher = more active; in vitro selection for triplet polymerase activity
Quick rule: polymerase ribozyme fitness (log ratio) of at least -3 means Met, below that means Not met.

mutant="A2U A16G C72A" class_name="Not met"
mutant="C11G G107U" class_name="Not met"
mutant="U81A U129C" class_name=Met
mutant="C11A A74G" class_name=Met
mutant="G42C G71C C79U C80U C97A A121U" class_name="Not met"
mutant="U9G U38G A105U" class_name=Met
mutant="A100C U109A" class_name="Not met"
mutant="U59A C62G" class_name="Not met"
mutant="C56U U81C" class_name=Met
mutant="G45C U125A" class_name=Met
mutant="C72G U131A" class_name=Met
mutant="G17A C72G" class_name="Not met"
mutant="G10A G51U C56G" class_name="Not met"
mutant="G47A A50U A91C" class_name="Not met"
mutant="C40G G52A U78A C101A G120U" class_name=Met
mutant="C53A C82U C88G A118U" class_name=Met
mutant=G65A class_name="Not met"
mutant="C72A G93C C114U C115U" class_name="Not met"
mutant="C40U G113A" class_name=Met
mutant="A2U C56A C64U G120C" class_name="Not met"
mutant="G63U C85U G110U" class_name="Not met"
mutant="U59C A111U A118U" class_name="Not met"
mutant="G23C A27G G110U" class_name="Not met"
mutant="C11U G36A G63U" class_name=Met
mutant="G69A U133A" class_name="Not met"
mutant="G60A G93U" class_name=Met
mutant="G61U U78G U112G" class_name=Met
mutant="C11A G17A C124A G128A" class_name="Not met"
mutant="C70A U112A" class_name=Met
mutant="G36A C72U" class_name=Met
mutant="A91C G117C" class_name=Met
mutant="G10C U92C G113U" class_name="Not met"
mutant="G48U G58A G122A" class_name=Met
mutant="C8A C53G C56A C70U C97U U112A C124U" class_name=Met
mutant="A26C U92A" class_name="Not met"
mutant="G10A G52C" class_name=Met
mutant="C11G U59A" class_name=Met
mutant="C40U G48C" class_name=Met
mutant="A5G C49U C73U" class_name=Met
mutant="C13A G39U U59G G69C" class_name="Not met"
mutant="C101A U112G C115A" class_name=Met
mutant="C49G C115A" class_name=Met
mutant="U96G G110U" class_name=Met
mutant="C49A G77A U106C C114A" class_name=Met
mutant="G44A C49U U78G C101A" class_name="Not met"
